Source: paper PMC8123306

// values below are reported IC50
targetUnderTest: EC-LigA (Escherichia coli DNA ligase LigA) (Escherichia coli)
Construct: purchased NEB
procedureText: in vitro ligase assay (nicked DNA substrate, denaturing PAGE)
Format: biochemical
conditionSet: 120 nM nicked DNA, 30 nM EC-LigA, 26 µM NAD+, room temperature, 5 min; three-parameter fit; read-out: IC50
property: IC50 (µM)

>>> assayvalue("NCc1ncc[nH]1")
872
>>> assayvalue("O=C(NCNC(=O)NC1C(=O)NC(=O)N1CO)NC1C(=O)NC(=O)N1CO (stereo not shown)")
38.5
>>> assayvalue("[H]/N=C(\\N/C(=N/[H])NCCCCCCNC(=N)NC(=N)Nc1ccc(Cl)cc1)Nc1ccc(Cl)cc1 [Chlorhexidine, chlorhexidine, reference compound]")
11
>>> assayvalue("CN[C@@H]1[C@@H](O)[C@@H](O[C@@H]2[C@@H](O)[C@H](O[C@H]3O[C@H]([C@@H](C)O)[C@@H](O)[C@H](O)[C@H]3N)[C@@H](N)C[C@H]2N)OC[C@]1(C)O [Geneticin, geneticin, reference compound]")
2600

---

targetUnderTest: EC-LigA (Escherichia coli DNA ligase LigA) (Escherichia coli)
Construct: purchased NEB
procedureText: in vitro ligase assay (nicked DNA substrate, denaturing PAGE)
Type: biochemical
conditionSet: concentrations up to 3333 µM
property: inhibition of EC-LigA (result in words)

>>> assayvalue("O=C(O)c1ccn2ccnc2c1 [imidazo[1,2-a]pyridine-7-C, imidazo[1,2-a]pyridine-7-carboxylic acid]")
"do not inhibit EC-LigA"
>>> assayvalue("Nc1ncn([C@@H]2O[C@H](CO)[C@@H](O)[C@H]2O)c(=O)n1 [5-azacytidine, reference compound]")
"do not inhibit EC-LigA"
>>> assayvalue("CC(C)C[C@H](NC(=O)[C@@H](O)[C@H](N)Cc1ccccc1)C(=O)O [bestatin, reference compound]")
"do not inhibit EC-LigA"

---

targetUnderTest: EC-LigA (Escherichia coli DNA ligase LigA) (Escherichia coli, UniProt P15042)
Construct: purchased NEB
Sequence (P15042 whole entry): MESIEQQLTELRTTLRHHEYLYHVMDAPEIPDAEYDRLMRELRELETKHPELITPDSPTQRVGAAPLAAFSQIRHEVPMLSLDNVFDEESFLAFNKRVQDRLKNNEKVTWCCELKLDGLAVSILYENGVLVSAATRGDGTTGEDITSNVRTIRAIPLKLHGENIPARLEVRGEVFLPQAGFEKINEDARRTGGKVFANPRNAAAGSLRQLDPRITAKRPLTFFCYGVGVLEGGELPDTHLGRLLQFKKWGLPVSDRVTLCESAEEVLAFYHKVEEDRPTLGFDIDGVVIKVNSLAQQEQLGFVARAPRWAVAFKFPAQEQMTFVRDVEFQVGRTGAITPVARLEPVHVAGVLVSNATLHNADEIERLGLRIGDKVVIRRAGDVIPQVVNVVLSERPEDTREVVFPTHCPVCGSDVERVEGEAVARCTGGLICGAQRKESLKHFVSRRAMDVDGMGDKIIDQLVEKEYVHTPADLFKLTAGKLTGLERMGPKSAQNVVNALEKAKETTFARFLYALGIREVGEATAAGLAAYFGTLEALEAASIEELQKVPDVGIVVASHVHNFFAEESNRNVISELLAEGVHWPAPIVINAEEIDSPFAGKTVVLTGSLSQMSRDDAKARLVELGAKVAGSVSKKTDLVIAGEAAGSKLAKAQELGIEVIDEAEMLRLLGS
procedureText: in vitro ligase assay (nicked DNA substrate, denaturing PAGE)
Format: biochemical
conditionSet: apparent IC50; read-out: IC50
property: IC50 (µM)

>>> assayvalue("NCc1ncc[nH]1")
870

---

targetUnderTest: EC-LigA (Escherichia coli DNA ligase LigA) (Escherichia coli, UniProt P15042)
Construct: purchased NEB
procedureText: in vitro ligase assay (nicked DNA substrate, denaturing PAGE)
Format: biochemical
conditionSet: IC50, as stated in the text, apparent IC50
property: IC50 (µM)

>>> assayvalue("N[C@@H](CCC(=O)N[C@@H](CS)C(=O)NCC(=O)O)C(=O)O")
1520
